System: Plasmodium falciparum
Assay: Hit confirmation in dose-response curve in NF54 pLDH assay, at 72h
Format: functional, organism-based
Design: timepoint 72 hour
Run conditions: NF54, Erythrocyte
Field 'label' (enum: y / n). Set to y when IC50 is strictly under 2000 nM; else n.

Inquiry: # TODO verify IC50 < 2000 nM strictly for this compound: Cc1ccc([C@H](c2c[nH]c3ccccc23)N(C)C(=O)C(C)C)cc1
Reply text: n

Inquiry: Confirm or reject: IC50 of CCCc1cc(-c2nc(-c3ccc(-n4nc(C)cc4N)cc3)no2)n(C)n1 lies strictly below 2000 nM
Reply text: y

Inquiry: Lab log: compare recorded IC50 with 2000 nM; is it strictly lower for COc1ccc2[nH]c3c(c2c1)CC(C(=O)O)NC3c1ccc(OC)c(CN2CCN(c3ccccc3F)CC2)c1 (centres undefined) ?
Reply text: n

Inquiry: Just wondering, is IC50 of CCN(CCN(C)C)C(=O)c1cccc(-c2ccc3nccc(N)c3c2)c1 below 2000 nM?
Reply text: y

Inquiry: Lab note: IC50 threshold 2000 nM. Does this compound come in strictly under it? Cc1cc(C)c2nc(C)cc(Nc3ccc(O)cc3)c2c1
Reply text: y

Inquiry: Identify whether the compound Cc1ccc2c(c1)c1c(n2S(=O)(=O)c2ccc(C(C)(C)C)cc2)CCCN(C)C1 records IC50 below 2000 nM.
Reply text: n

Inquiry: Consider Brc1cccc(-c2ccc(-c3cc(-c4ccccc4)nnc3-c3ccccc3)o2)c1 . Does its IC50 lie strictly below 2000 nM?
Reply text: n

Inquiry: Field: below-cutoff. Rule: recorded IC50 strictly less than 2000 nM. Subject: CCOc1ccc(NC(=O)c2cn3nc(-c4ccc(OCC)cc4)cc3nc2C2CCN(C(=O)OC(C)(C)C)CC2)cc1
Reply text: n

Inquiry: Lab note: IC50 threshold 2000 nM. Does this compound come in strictly under it? Cc1ccc(NC(=O)Nc2cc(C)ccc2N2CCCN(Cc3ccc(F)cc3)C2=O)cc1
Reply text: n

Inquiry: Is IC50 strictly under 2000 nM for the entry O=C(Nc1[nH]c(=O)ncc1F)c1cc(F)c(F)cc1Br ?
Reply text: y

Inquiry: Is IC50 strictly under 2000 nM for the entry COc1ccc(C(=O)N2c3ncnn3C(c3ccccc3)CC2c2ccc(C)cc2)cc1OC (centres undefined) ?
Reply text: y

Inquiry: Confirm or reject: IC50 of CCc1c(C)nn2c(c1C)c(-c1ccccc1)[n+]1c(C)c(CC)c(C)nc21 lies strictly below 2000 nM
Reply text: n

Inquiry: Dear colleague, could you confirm whether IC50 of CC1([C@@](O)(C#CC[N+]2(C)CCCCC2)c2ccccc2)CCCC1 falls below 2000 nM? Thanks.
Reply text: y

Inquiry: Lab log: compare recorded IC50 with 2000 nM; is it strictly lower for COc1cccc(-c2nn(-c3nc(-c4ccccc4)cc(C(F)(F)F)n3)c(-c3cccc(OC)c3)c2Cl)c1 ?
Reply text: n

Inquiry: Hello, is IC50 of the following compound strictly smaller than 2000 nM? COCCCn1c(NS(=O)(=O)c2ccc3ccccc3c2)c(S(=O)(=O)c2ccc(C)cc2)c2nc3ccccc3nc21
Reply text: n

Inquiry: Quick check: IC50 of O=C1NC(c2ccccc2)=NC12CCN(Cc1c(F)cccc1F)CC2 under 2000 nM?
Reply text: n

Inquiry: In plain terms, does COc1ccnc(CN2CCC[C@H](c3nc(-c4ccccc4)c[nH]3)C2)c1OC come in under 2000 nM for IC50?
Reply text: y

Inquiry: Threshold test, IC50 < 2000 nM: COc1ccc2[nH]c3c(c2c1)CCN(C(=O)c1ccc(C)c(C)c1)[C@@H]3c1ccccc1OC
Reply text: n

Inquiry: Threshold test, IC50 < 2000 nM: COc1nc(NC[C@H]2CCCN2C(C)C)ncc1F
Reply text: y

Inquiry: Here's an entry: Cc1cc(N2CC(OCc3ccccc3)C2)nc(Nc2cccc(O)c2)n1 . Is its IC50 below 2000 nM?
Reply text: n

Inquiry: # TODO verify IC50 < 2000 nM strictly for this compound: COc1ccc(NC(=O)C2(N(Cc3ccccc3)C(=O)Cn3nnc4ccccc43)CCCCC2)cc1
Reply text: n

Inquiry: API: query returns whether the compound falls strictly under 2000 nM in IC50. Query: Cc1c(-c2nn(-c3nc(C4CC4)cc(C(F)(F)F)n3)c(-c3cnn(C)c3C)c2Cl)cnn1C
Reply text: n

Inquiry: Dear colleague, could you confirm whether IC50 of COc1cc(OC)cc(C(=O)Nc2ccc3nc(N4CCC(C)CC4)cc(C)c3c2)c1 falls below 2000 nM? Thanks.
Reply text: n

Inquiry: For CCC(=O)N1CCc2sc(S(=O)(=O)N3CCN(c4cc(C)ccc4C)CC3)cc2C1 , is the recorded IC50 below the cut-off of 2000 nM?
Reply text: n
